Below are IC50 measurements against Rho-associated protein kinase 1 (Homo sapiens, UniProt Q13464) drawn from the literature.

Use the examples below as a reference point.
O=C(NC1CCN(c2ccncc2Cl)CC1)c1cc2ccc(-c3nccc(Nc4ccc(-c5cn[nH]c5)cc4)n3)cc2s1	> 10 µM
CN1CCN(C2CCN(C(=O)c3cc4ccc(-c5nccc(Nc6ccc7[nH]ncc7c6)n5)cc4[nH]3)CC2)CC1	> 10 µM
CN(C)CCN(Cc1ccccc1)C(=O)N1CCc2cc(-c3cn[nH]c3)ccc21	0.05 to 0.5 µM
Cn1c(C(=O)N2CC(F)(F)C2)cc2c1CN(c1ncnc(Nc3ccc(-c4cn[nH]c4)cc3)n1)CC2	> 4.5 µM
COc1cccc([C@@H](CO)NC(=O)N2CCc3cc(-c4cn[nH]c4)c(F)cc32)c1	≤ 0.05 µM

Endpoint output: IC50 of O=C(Nc1cccc(-n2nc(Nc3ccc4[nH]ncc4c3Cl)c3ccccc32)c1)c1cccnc1 . Value? > 10 µM

Moving on to the next compound: Cn1c(C(=O)N2CC(F)(F)C2)cc2c1CN(c1ncc(C#N)c(Nc3ccc(-c4cn[nH]c4)cc3)n1)CC2 > 4.5 µM

----------
The compounds below each have a reported IC50 tested on Rho-associated protein kinase 1 (Homo sapiens); the values come from various publications.

Entry under review: O=C(N1CCN(C2COC2)CC1)N1Cc2ccc(-c3nccc(Nc4ccc(-c5cn[nH]c5)cc4)n3)cc2C1 . Reported IC50? > 10 µM

Entry O=C(c1cc2c(n1C(F)F)CN(c1ncnc(Nc3ccc(-c4cn[nH]c4)cc3)n1)CC2)N1CC(F)(F)C1 please > 4.5 µM

Thanks! And Cn1c(C(=O)N2CC(C(F)(F)F)C2)cc2c1CN(c1nccc(Nc3ccc(-c4cn[nH]c4)cc3)n1)CC2 ? > 4.5 µM

Next compound up: COc1cccc(CNC(=O)N2CCc3cc(-c4c[nH]nc4F)c(F)cc32)c1 ≤ 0.05 µM

Can you check CN(CC(F)(F)F)C(=O)c1cc2ccc(-c3nccc(Nc4ccc(-c5cn[nH]c5)cc4)n3)cc2s1 next? > 10 µM

// same read-out, input: O=C(NCc1cc(F)cc(OC(F)(F)F)c1)N1CCc2cc(-c3cn[nH]c3)c(F)cc21 0.5 to 5 µM

Please answer likewise for Cc1cc(Nc2ccc3[nH]ncc3c2)nn1-c1cccc(NC(=O)c2cccnc2)c1 0.3 to 3 µM

Field entry: N[C@H]1CCN(S(=O)(=O)c2cccc3cncc(C(F)(F)F)c23)C1 1 to 3 µM

----------
Field IC50: reported value for Rho-associated protein kinase 1 (Homo sapiens); entries drawn from several documents.

# example entries with known answers
COc1cc(F)cc(CNC(=O)N2CCCc3sc(-c4cn[nH]c4)nc32)c1	50 to 500 nM
CC(N)C1CCN(S(=O)(=O)c2cccc3cncc(Cl)c23)C1 (centres unmarked)	1000 to 3000 nM
Cn1cc(C(=O)Nc2cccc(-n3nc(Nc4ccc5[nH]ncc5c4Cl)c4ccccc43)c2)cn1	300 to 3000 nM
O=C(CN1CCC1)N[C@H]1CCN(S(=O)(=O)c2cccc3cncc(Cl)c23)C1	1000 to 3000 nM

Look at this compound and give its reported IC50. CN(C)CCC(NC(=O)N1CCc2cc(-c3cn[nH]c3)ccc21)c1ccccc1 (centres unmarked) 50 to 500 nM
